In this section, each of the compounds is paired with its reported Potency.
molecular target: DNA dC->dU-editing enzyme APOBEC-3F (Homo sapiens) (UniProt Q8IUX4); assay: qHTS for inhibitors of Vif-A3F interactions: Cherry picks counterscreen; settings: HeLa A3F-eYFP/Vif cells, eYFP fluorescence, 24 h; series mostly up to 46.1 µM; further: nearly all actives have a fitted effect of over 65% in size; further: potency means the concentration at half of the fitted maximal effect
Sequence (Q8IUX4 whole entry, looked up): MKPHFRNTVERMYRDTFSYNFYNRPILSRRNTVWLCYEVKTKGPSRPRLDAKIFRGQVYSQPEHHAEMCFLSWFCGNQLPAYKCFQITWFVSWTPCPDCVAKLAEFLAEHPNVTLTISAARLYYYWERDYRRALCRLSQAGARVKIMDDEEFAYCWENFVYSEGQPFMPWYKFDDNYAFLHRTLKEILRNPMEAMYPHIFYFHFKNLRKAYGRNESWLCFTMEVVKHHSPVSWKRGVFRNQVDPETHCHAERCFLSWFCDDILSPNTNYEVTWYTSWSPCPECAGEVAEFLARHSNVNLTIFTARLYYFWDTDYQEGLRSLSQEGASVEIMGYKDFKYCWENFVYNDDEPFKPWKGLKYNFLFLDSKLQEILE
The whole screen tested about 2,100 compounds, of which about 1,100 (52%) were called active. Inconclusive results (about 29%) are left out. The set was probably picked from earlier hits. The list shows a part of the results.

Ask | Name the reported Potency value associated with the compound `Cc1cc(N2CCCC2)ccc1C=C(C#N)C#N`
Reply | 20.6 µM (active)

Ask | Any idea what Potency was measured for `Cc1cccc(-n2c(/C=C/c3ccc([N+](=O)[O-])o3)nc3ccccc3c2=O)c1` ?
Reply | 8.2 µM (active)

Ask | What value of measured Potency is listed for CC(=O)Nc1cccc(-c2ccnc3c2CC(C(=O)NCc2ccco2)O3)c1 (configuration not stated) ?
Reply | 4.44 µM (active)

Ask | Fill in the blank: the reported Potency of `COc1ccc(-n2cnc3cc(C(=O)N4CCC5(CC4)OCCO5)ccc32)cc1` is ____.
Reply | 17.7 µM (active)

Ask | What measured Potency goes with `O=C1NC(=O)N(c2ccc3c(c2)OCO3)C(=O)/C1=C/c1ccc(N2CCCCC2)o1` ?
Reply | 20.6 µM (active)

Ask | Requested read-out: Potency. Entry: `CN1C(=O)/C(=C\c2ccc(N3CCCCC3)o2)C(=O)NC1=S`
Reply | 17.7 µM (active)

Ask | Entry under review: `O=C1NC(=O)N(c2ccc3c(c2)OCO3)C(=O)/C1=C\c1ccc(N2CCCCC2)o1` . Reported Potency?
Reply | 18.4 µM (active)

Ask | Need Potency, item `CN1C(=O)/C(=C/c2ccc(N3CCCCCC3)o2)C(=O)NC1=S`
Reply | 4.44 µM (active)

Ask | Which Potency value belongs to `Cc1cccc(-n2c(/C=C/c3c(C)[nH]c4ccccc34)nc3ccccc3c2=O)c1` ?
Reply | 18.4 µM (active)

Ask | So what does the record say about Potency for `Cc1cccc(-n2c(O)c(/C=C/C=Nc3ccccc3)c(=O)[nH]c2=O)c1` ?
Reply | 4.61 µM (active)

Continuing:
Ask | Sample `NC(=Nc1ccccc1)NN=Cc1c[nH]c2ccccc12` — what was its Potency?
Reply | 3.14 µM (active)

Ask | Potency lookup needed for CCS(=O)(=O)N1N=C(c2cccc(NS(C)(=O)=O)c2)CC1c1ccccc1 (configuration not stated) , thanks.
Reply | 23.1 µM (active)

* * *

target: DNA dC->dU-editing enzyme APOBEC-3F (Homo sapiens) (UniProt Q8IUX4); experiment: qHTS for inhibitors of Vif-A3F interactions: Cherry picks counterscreen; conditions: HeLa A3F-eYFP/Vif cells, eYFP fluorescence, 24 h; series mostly up to 46.1 µM; further: nearly all actives have a fitted effect of over 65% in size
Among all 2,100 compounds or so, about 1,100 (52%) were called active. Inconclusive results (about 29%) are left out. The call rests on the fitted dose curve; in most records, active means well fitted inhibition curve with a large enough effect; inconclusive means small, poorly fitted or top-dose-only effect; inactive means no such curve, though single readings can be large or run the other way. The set was probably picked from earlier hits. This is one part of the list.
Outcome field: choose from true = active, false = inactive

Here are 2 compounds together with their reported answers.
Ask | Hey, what did the test say about `COCCCNC(=O)c1c(NC(=O)c2ccco2)n(Cc2ccccc2)c2nc3ccccc3nc12` ?
Reply | false

Ask | Per the records of this test, what outcome belongs to `CCN(CC)c1ccc(/C=C2\C(=O)NC(=S)N(C)C2=O)o1` ?
Reply | true

Switching to the query record.
Ask | Outcome logged for `Cn1cccc1/C=C1\C(=O)NC(=O)N(Cc2ccccc2Cl)C1=O` in this assay:
Reply | true

Reference source for all entries: PubChem BioAssay AID651815
